Test system: HCT116
Assay: MTS assay cell viability, 48 hours L-OHP exposure
Format: cell-based, human
Conditions: HCT116, 48 hours exposure, read-out: IC50 value (L-OHP concentration at which cell growth is inhibited by 50%)
propertyName: IC50
Express your answer as a number followed by its unit.

Check the records and state IC50 for O=C1[O][Pt]2([NH][C@@H]3CCCC[C@H]3[NH]2)[O]C1=O [L-OHP] 890 nM

----------
System: HT29
Assay: MTS assay cell viability, 48 hours L-OHP exposure
Type: cell-based, human
Conditions: HT29, 48 hours exposure, read-out: IC50 value (L-OHP concentration at which cell growth is inhibited by 50%)
propertyName: IC50 (µM)
State the answer as a number, implicitly in µM.

Check the records and state IC50 for O=C1[O][Pt]2([NH][C@@H]3CCCC[C@H]3[NH]2)[O]C1=O 23.9

Sourced from patent US9797884B2
